Assay: Human HepG2 cell viability assay in 384 well format
Assay type: toxicity, cell-based
Design: dose 125 nL, time 70.5 hour; concentration not given beside the values
Settings: HepG2 cells, read-out: Inhibition
MEASURED_PARAMETER: cytotoxicity at 70.5 h (%)

{"columns": ["COMPOUND", "MEASURED_PARAMETER", "ENDPOINT_VALUE"],
 "data": [
  ["Cn1nc(C(=O)N2CCOCC2)cc1C(=O)Nc1c(Cl)cccc1Cl", "cytotoxicity at 70.5 h", -2.69],
  ["CC(C)(O)CCc1cccc(C(=O)NCCC2=CSC3=NCCCN23)c1", "cytotoxicity at 70.5 h", -0.369],
  ["CCN1CC(COC(=O)c2ccccc2Cl)CC1=O (configuration not stated)", "cytotoxicity at 70.5 h", 7.47],
  ["FC(F)(F)c1cc(C2CCNCC2)nc(-c2ccsc2)n1", "cytotoxicity at 70.5 h", -11.8],
  ["CC(C)c1ncc2c(n1)CN(Cc1cccc(OCC(N)=O)c1)CC2", "cytotoxicity at 70.5 h", -7.58],
  ["Cc1cc(NC(=O)NCCc2cscn2)nn1C", "cytotoxicity at 70.5 h", -4.59],
  ["c1ccc(OC[C@H]2CCC[C@]23CN(Cc2nccs2)CCO3)nc1", "cytotoxicity at 70.5 h", -4.23],
  ["CCOCc1nc(-c2cccc(OC)c2OC)n(C2CCN(C)CC2)n1", "cytotoxicity at 70.5 h", -1.78],
  ["NC(=O)N1CCC2(CCN(Cc3cccc(F)c3)CC2)CC1", "cytotoxicity at 70.5 h", -7.24],
  ["CCOc1ncccc1CNC(=O)CN1CCCCCC1=O", "cytotoxicity at 70.5 h", 19.7],
  ["O=C1NC[C@]2(CC[C@@H](C(=O)N3CCC(O)CC3)CC2)Oc2ccccc21", "cytotoxicity at 70.5 h", -4.51],
  ["CC(C)CNC(=O)C(C)N1CCN(C2CCN(C(C)C)CC2)CC1 (configuration not stated)", "cytotoxicity at 70.5 h", -12.6]
]}

---

Parameter cytotoxicity at 70.5 h: see the listing below.
Assay: Human HepG2 cell viability assay in 384 well format
Assay type: toxicity, cell-based
Parameters: dose 125 nL, time 70.5 hour; concentration not given beside the values
Details: HepG2 cells, read-out: Inhibition
MEASURED_PARAMETER: cytotoxicity at 70.5 h (%)

{"columns": ["COMPOUND", "MEASURED_PARAMETER", "ENDPOINT_VALUE"],
 "data": [
  ["CCS(=O)(=O)N1CCCn2nnc(CNC(C)=O)c2C1", "cytotoxicity at 70.5 h", 7.38],
  ["CC(C)C(=O)NC1CCCN(C(=O)c2ccc(O)c(Cl)c2)C1 (stereo unspecified)", "cytotoxicity at 70.5 h", -9.92],
  ["Cc1cccc(N2CCC(N3CCC4(CCCNC4=O)C3)CC2)c1C (stereo unspecified)", "cytotoxicity at 70.5 h", 10.3],
  ["Cc1cccc(CNC(=O)NCC2CCN(Cc3ncc[nH]3)C2)c1 (stereo unspecified)", "cytotoxicity at 70.5 h", -16.7],
  ["CCN(CC)C(=O)N1CCN(Cc2cnc(C)nc2)[C@H]2CS(=O)(=O)C[C@H]21", "cytotoxicity at 70.5 h", -17.5],
  ["COCC(=O)Nc1ccc([C@@H](O)[C@H]2COCC(=O)N2CC(C)C)cc1", "cytotoxicity at 70.5 h", 8.86],
  ["O=C(O)C1(Oc2cccc(F)c2)CCN(c2ccncc2)CC1", "cytotoxicity at 70.5 h", -0.0629],
  ["O=c1c2cccnc2cnn1CC(O)c1cccc(C(F)(F)F)c1 (stereo unspecified)", "cytotoxicity at 70.5 h", 11.1],
  ["COCC1CN(Cc2ccoc2)Cc2nn(C)cc21 (stereo unspecified)", "cytotoxicity at 70.5 h", -2.22],
  ["Cn1nc(C2CN(S(C)(=O)=O)C2)c2nccnc21", "cytotoxicity at 70.5 h", 3.57],
  ["CCCNC(=O)C1CCN(CC2(O)CCC(C)CC2)CC1 (stereo unspecified)", "cytotoxicity at 70.5 h", -3.07]
]}

meta.source: ChEMBL document CHEMBL3507680
